Target: T1, human α4β7 integrin on cells (human, UniProt P13612 34-1032; P26010 20-798)
T1 construct: whole, on cells; also called α4β7 cell (Hu); RPMI8866 cells
Assay: RPMI8866 cell adhesion to MAdCAM-1
Bridge positions count the residues as written; N and C are the ends. Square brackets hold non-standard residues; d marks the D form. Ends that are not written are not given here. * marks the point of attachment. Phe(4-tBu) = CC(C)(C)c1ccc(C[C@H](N)C(=O)O)cc1; NMeR = CN[C@@H](CCCNC(=N)N)C(=O)O; β3hE = N[C@@H](CCC(=O)O)CC(=O)O; Pen = CC(C)(S)[C@H](N)C(=O)O; Hexanoyl = CCCCCC(=O)*
measuredProperty: IC50

Consider the binder Ac-[Pen][NMeR]SDTL[Pen][Phe(4-tBu)][β3hE][dK](Hexanoyl) (disulfide 1-7) [SEQ ID NO: 170] and give its measured IC50. > 0.01 µM

Consider the binder Ac-[Pen][NMeR]SDTL[Pen]HE[dK]-NH2 (disulfide 1-7; not fully specified (residue 10); printed as (Ac Pen N-Me-R S D T L Pen H E k NH2)2 DIG, disulfide Pen-Pen; also: dimer, two subunits joined by DIG linker) [SEQ ID NO: 25] and give its measured IC50. > 0.01 µM
